Test system: SW-620 colon
Experiment: NCI tumour cell line growth inhibition, 48 h; in the data active = GI50 below about 0.43 µM; inactive = the rest
Outcome codes: Yes for active, No for inactive

{"columns": ["compound", "assigned class"],
 "data": [
  ["CC1(C)Cc2cccc(OCC(O)CN3CCN(c4ccc(F)cc4)CC3)c2O1 (configuration not stated)", "No"],
  ["O=C(c1ccccc1)c1ccc(Cl)c([N+](=O)[O-])c1", "No"],
  ["O=S(=O)(O)c1ccc(Cl)cc1.[Cd]", "No"],
  ["COc1ccc2nc3cccc([N+](=O)[O-])c3c(NCCN(CCO)CCO)c2c1", "Yes"],
  ["O=C1Nc2cc(Cl)ccc2Oc2cc(Oc3ccccc3)ccc21", "No"],
  ["Cn1cc(C2=C(c3c4n(c5ccccc35)CC(CN)C4)C(=O)NC2=O)c2ccccc21 (configuration not stated)", "No"],
  ["COc1ccc(S(=O)(=O)N2CCN(C(=O)OCc3ccccc3)CC2C(=O)NO)cc1 (configuration not stated)", "No"]
]}

----------
Parameter: TGI. Scope: all listed entries.
Tested on: BT-549 breast
Assay: NCI tumour cell line growth inhibition, 48 h

{"columns": ["molecule", "sign", "TGI (µM)"],
 "data": [
  ["COc1ccc(Nc2c3c4c(cccc4[nH]c2=O)C(=O)c2ccccc2-3)cc1", "=", 0.0708],
  ["CN(C)CCCc1cccnc1", ">", 100],
  ["CC1=NN(c2nc(N)nc(C(C)Sc3cc(Cl)c(C)cc3S(N)(=O)=O)n2)C(C)(C)C1 (stereo not given)", ">", 10],
  ["COc1ccc(-c2cc(-c3ccc(O)cc3)nc3nc(=S)[nH]c(N)c23)cc1", "=", 32.7],
  ["NC(=O)Cc1ncn(-c2ccccc2)n1", ">", 100],
  ["Cc1cccc2nc3n(c12)C(=O)c1ccccc1-3", ">", 100],
  ["COc1cc(C(=O)NC2CCN(C)CC2)ccc1Nc1ncc2c(n1)N(C1CCCC1)CC(F)(F)C(=O)N2C", "=", 15.5],
  ["CC(=O)Oc1ccc2ccc(=O)oc2c1OC(C)=O", ">", 100],
  ["CCOCCc1c(O)nc(SC)[nH]c1=O", ">", 100],
  ["Cc1nc2c(O)cccc2c(=O)[nH]1", "=", 634],
  ["O=C(N1CCOCC1)C1(c2ccccc2)CCNCC1", ">", 100],
  ["C=CCCC(O)c1ccc(C(O)CCCCCCCCCCCC)o1 (stereo not given)", "=", 42.2],
  ["COc1ccc(C(=O)/C=C2\\c3ccccc3C(=O)N2C)cc1", ">", 100],
  ["CSC(=S)N/N=C/c1ccccc1", ">", 100],
  ["COc1ccc(-c2cn(-c3ccc(Cl)cc3)c(=S)[nH]2)cc1OC", ">", 100],
  ["O/N=C(\\C=N\\O)c1ccc2c(c1)Sc1ccccc1O2", "=", 40.7],
  ["C/C(=N\\Nc1ccc2ccccc2n1)c1ccccc1O", ">", 100],
  ["COc1ccc(-c2nc(N(C)C)c3ccccc3n2)cc1", "=", 43.5],
  ["CCCCOP(=O)(OCCCC)/C(C#N)=C/c1ccc(C)o1", "=", 43],
  ["Nc1ccccc1/C=N\\Nc1ccccc1", ">", 100],
  ["COC(=O)[C@@]12CC[C@]1(C(=O)OC)C1C(C)=CC(=O)O[C@@]12C (stereo not given in full)", ">", 100],
  ["O=c1c2c(sc3ccccc13)NCN(CCc1ccccc1)C2", ">", 100],
  ["OC(c1ccc(F)cc1)C(F)(F)c1nc(-c2ccccc2)no1 (stereo not given)", "=", 36.8],
  ["COc1ccc2nc3cccc([N+](=O)[O-])c3c(NCCN(CCO)CCO)c2c1", "=", 0.14],
  ["CN(C)CCSC(=Nc1ccccc1)N1C=COC=C1", ">", 100]
]}

----------
Test system: SNB-75 CNS
Assay: NCI tumour cell line growth inhibition, 48 h; in the data active means GI50 below about 0.43 µM; inactive means the rest
Outcome codes: Y for active, N for inactive

{"columns": ["compound", "assigned class"],
 "data": [
  ["CN(CCCCCl)P(=O)(OCc1ccc([N+](=O)[O-])o1)C(F)(F)c1ccc(CC(=O)N[C@@H](CC(=O)O)C(=O)N[C@@H](Cc2ccc(C(F)(F)P(=O)(OCc3ccc([N+](=O)[O-])o3)N(C)CCCCCl)cc2)C(N)=O)cc1 (stereo partly drawn)", "N"],
  ["C(=N/Nc1ncnc2nc[nH]c12)/c1ccccn1", "N"],
  ["CC(C)c1ccc2c(N=Nc3ccc(S(N)(=O)=O)cc3)c(O)[nH]c2c1", "N"],
  ["Cc1ccc(Cl)cc1Nc1nc(C(F)(F)F)ccc1C(=O)N/N=C/c1c(Cl)cccc1Cl", "N"],
  ["O=C(Nc1ncc(Cc2ccccc2)s1)c1ccc2c(c1)OCCO2", "Y"],
  ["COc1ccccc1CNCCCN1C(=O)c2ccc3c4c(ccc(c24)C1=O)C(=O)N(CCCNCCCCNCCCCN)C3=O", "N"],
  ["COc1ccc(/C=C2\\N=C(c3ccccc3)N(c3cc(C(F)(F)F)ccc3Cl)C2=O)cc1OC", "N"],
  ["COc1ccc(C(=O)C(c2ccc(OC)cc2)C2C(=O)Oc3ccccc32)cc1 (stereo not drawn)", "N"],
  ["NC(=O)c1nnn(Cc2cc(Cl)c(C(=O)c3ccc(Cl)cc3)c(Cl)c2)c1N", "N"],
  ["CC(C)(C)C(=O)OCOP(=O)(OCOC(=O)C(C)(C)C)C1CCCN(OC(=O)c2ccccc2)C1=O (stereo not drawn)", "N"],
  ["CC1(C)CC(=O)C2=C(C1)NC(SSC1=C(C#N)C(c3ccc(Br)cc3)C3=C(CC(C)(C)CC3=O)N1)=C(C#N)C2c1ccc(Br)cc1 (stereo not drawn)", "N"],
  ["C[As](C)Sc1ccnc(S[As](C)C)n1", "N"],
  ["CC1(C)CC[C@]2(C(=O)n3ccnc3)CC[C@]3(C)[C@H](C(=O)C=C4[C@@]5(C)C=C(C#N)C(=O)C(C)(C)[C@@H]5CC[C@]43C)[C@@H]2C1", "Y"],
  ["O=C(N/N=C/c1coc2ccc(Cl)cc2c1=O)c1ccncc1", "N"],
  ["COc1cc(C(=O)NC2CCN(C)CC2)ccc1Nc1ncc2c(n1)N(C1CCCC1)CC(F)(F)C(=O)N2C", "Y"],
  ["Nc1ncnc2c1c(-c1cccc(OCc3ccccc3)c1)cn2C1CC(CN2CCCC2)C1 (stereo not drawn)", "N"],
  ["C#CC[C@@H]1C[C@]2(C)[C@H]3CC[C@@H]4[C@H]5[C@H](C(=C)C)CC[C@]5(C(=O)O)CC[C@@]4(C)[C@]3(C)CC[C@H]2C(C)(C)[C@H]1O", "N"],
  ["Fc1ccc(-c2ncn(C3CCNCC3)c2-c2ccnc(Oc3ccccc3)n2)cc1", "N"]
]}

----------
Test system: SK-OV-3 ovarian
Experiment: NCI tumour cell line growth inhibition, 48 h; in the data active means GI50 below about 0.43 µM; inactive means the rest
Outcome codes: active, inactive

{"columns": ["compound", "assigned class"],
 "data": [
  ["Nc1ccccc1/C=N\\Nc1ccccc1", "inactive"],
  ["CC(C)(C)C(=O)OCOP(=O)(OCOC(=O)C(C)(C)C)C1CCCN(OC(=O)c2ccccc2)C1=O (stereo unspecified)", "inactive"],
  ["Fc1ccc(CNc2c3ccccc3nc3ccccc23)cc1", "inactive"],
  ["O=S(=O)(O)c1ccc(Cl)cc1.[Cd]", "inactive"],
  ["CCCn1cc(C2=C(c3cn(C)c4ccccc34)C(=O)NC2=O)c2ccccc21", "inactive"],
  ["Nc1ncnc2c1c(-c1cccc(OCc3ccccc3)c1)cn2C1CC(CN2CCCC2)C1 (stereo unspecified)", "inactive"],
  ["CC1(C)CC[C@]2(C(=O)n3ccnc3)CC[C@]3(C)[C@H](C(=O)C=C4[C@@]5(C)C=C(C#N)C(=O)C(C)(C)[C@@H]5CC[C@]43C)[C@@H]2C1", "active"],
  ["COc1ccc(/C=C2\\N=C(c3ccccc3)N(c3cc(C(F)(F)F)ccc3Cl)C2=O)cc1OC", "inactive"],
  ["O=C(CCc1nnc(-c2c(Cl)cccc2Cl)o1)c1nc2ccccc2[nH]1", "inactive"],
  ["COc1cc(-c2cc(/C=C/C(=O)c3ccc4c(c3)OCO4)[nH]n2)cc(OC)c1OC", "inactive"],
  ["COc1ccc(-c2cn(-c3ccc(Cl)cc3)c(=S)[nH]2)cc1OC", "inactive"],
  ["CCc1ccc(CCC(=O)Nc2ncc(Cc3cc(Cl)ccc3Cl)s2)o1", "inactive"],
  ["CCOC(=O)c1c[nH]c2c(OCc3ccccc3)c3ccccc3c(O)c2c1=O", "inactive"],
  ["O=C(CSc1nc2ccc([N+](=O)[O-])cc2[nH]1)Nc1cccc(Cl)c1", "inactive"],
  ["O=C(Nc1ncc(Cc2ccccc2)s1)c1ccc2c(c1)OCCO2", "active"],
  ["C#CC[C@@H]1C[C@]2(C)[C@H]3CC[C@@H]4[C@H]5[C@H](C(=C)C)CC[C@]5(C(=O)O)CC[C@@]4(C)[C@]3(C)CC[C@H]2C(C)(C)[C@H]1O", "inactive"]
]}
